meta.source: BindingDB's records for doi:10.1021/jm00087a006

Test: Compound was tested for the inhibition of [3H]- [D-Pen2, D-Pen5]-enkephalin (DPDPE) binding to opioid receptor delta in guinea pig brain homogenates
Positions of bridges follow the written chain, without caps; N, C: chain ends. Non-standard residues stand in square brackets, D forms with d. Residues, ends and D or L forms follow the SMILES beside them. Phe(4-tBu) = CC(C)(C)c1ccc(C[C@H](N)C(=O)O)cc1; mTyr = N[C@@H](Cc1cccc(O)c1)C(=O)O; Pen = CC(C)(S)[C@H](N)C(=O)O
Each entry below lists one item and its recorded Ki value.

# compound, Ki
measured = [
    ("CC(C)(C)c1ccc(C[C@@H]2NC(=O)[C@@H](NC(=O)[C@@H](N)Cc3ccc(O)cc3)CSSC(C)(C)[C@@H](C(=O)O)NC2=O)cc1 (H-YC[Phe(4-tBu)][Pen]-OH; disulfide 2-4)", "37 nM"),
    ("CC1(C)SSC[C@H](NC(=O)[C@@H](N)Cc2ccc(O)cc2)C(=O)N[C@@H](Cc2cccc(O)c2)C(=O)N[C@@H]1C(=O)O (H-YC[mTyr][Pen]-OH; disulfide 2-4)", "9.3 nM"),
]

###

Assay: Compound was tested for the inhibition of [3H]- [D-Pen2, D-Pen5]-enkephalin (DPDPE) binding to Opioid receptor delta 1 in guinea pig brain homogenates
Positions of bridges follow the written chain, without caps; N, C: chain ends. Non-standard residues stand in square brackets, D forms with d. Residues, ends and D or L forms follow the SMILES beside them. Phe(4-NO2) = N[C@@H](Cc1ccc([N+](=O)[O-])cc1)C(=O)O; Phe(4-tBu) = CC(C)(C)c1ccc(C[C@H](N)C(=O)O)cc1; Phe(4-F) = N[C@@H](Cc1ccc(F)cc1)C(=O)O; mTyr = N[C@@H](Cc1cccc(O)c1)C(=O)O; Pen = CC(C)(S)[C@H](N)C(=O)O
Checkbox rule: Ki lower than 100 nM = true; Ki not lower than 100 nM = false.

# compound, qualitative-label
records = [
    ("CC1(C)SSC[C@H](NC(=O)[C@@H](N)Cc2ccc(O)cc2)C(=O)N[C@@H](Cc2ccc([N+](=O)[O-])cc2)C(=O)N[C@@H]1C(=O)O (H-YC[Phe(4-NO2)][Pen]-OH; disulfide 2-4)", "true"),
    ("CC1(C)SSC[C@H](NC(=O)[C@@H](N)Cc2ccc(O)cc2)C(=O)N[C@@H](Cc2ccc(F)cc2)C(=O)N[C@@H]1C(=O)O (H-YC[Phe(4-F)][Pen]-OH; disulfide 2-4)", "true"),
    ("CC1(C)SSC[C@H](NC(=O)[C@@H](N)Cc2ccc(O)cc2)C(=O)N[C@@H](Cc2ccc(O)cc2)C(=O)N[C@@H]1C(=O)O (H-YCY[Pen]-OH; disulfide 2-4)", "true"),
    ("CC1(C)SSC[C@H](NC(=O)[C@@H](N)Cc2ccc(O)cc2)C(=O)N[C@@H](Cc2cccc(O)c2)C(=O)N[C@@H]1C(=O)O (H-YC[mTyr][Pen]-OH; disulfide 2-4)", "false"),
    ("CC(C)(C)c1ccc(C[C@@H]2NC(=O)[C@@H](NC(=O)[C@@H](N)Cc3ccc(O)cc3)CSSC(C)(C)[C@@H](C(=O)O)NC2=O)cc1 (H-YC[Phe(4-tBu)][Pen]-OH; disulfide 2-4)", "false"),
]

###

Experiment: Compound was tested for the inhibition of [3H]- [D-Pen2, D-Pen5]-enkephalin (DPDPE) binding to Opioid receptor delta 1 in guinea pig brain homogenates
Positions of bridges follow the written chain, without caps; N, C: chain ends. Non-standard residues stand in square brackets, D forms with d. Residues, ends and D or L forms follow the SMILES beside them. Phe(4-Cl) = N[C@@H](Cc1ccc(Cl)cc1)C(=O)O; Phe(3-F) = N[C@@H](Cc1cccc(F)c1)C(=O)O; Phe(4-Me) = Cc1ccc(C[C@H](N)C(=O)O)cc1; Phe(2-F) = N[C@@H](Cc1ccccc1F)C(=O)O; Pen = CC(C)(S)[C@H](N)C(=O)O

# compound, quantity-unit, Ki
measured = [
    ("Cc1ccc(C[C@@H]2NC(=O)[C@@H](NC(=O)[C@@H](N)Cc3ccc(O)cc3)CSSC(C)(C)[C@@H](C(=O)O)NC2=O)cc1 (H-YC[Phe(4-Me)][Pen]-OH; disulfide 2-4)", "nM", 5.4),
    ("CC1(C)SSC[C@H](NC(=O)[C@@H](N)Cc2ccc(O)cc2)C(=O)N[C@@H](Cc2ccccc2F)C(=O)N[C@@H]1C(=O)O (H-YC[Phe(2-F)][Pen]-OH; disulfide 2-4)", "nM", 3.3),
    ("CC1(C)SSC[C@H](NC(=O)[C@@H](N)Cc2ccc(O)cc2)C(=O)N[C@@H](Cc2cccc(F)c2)C(=O)N[C@@H]1C(=O)O (H-YC[Phe(3-F)][Pen]-OH; disulfide 2-4)", "nM", 2.9),
    ("CC1(C)SSC[C@H](NC(=O)[C@@H](N)Cc2ccc(O)cc2)C(=O)N[C@@H](Cc2ccc(Cl)cc2)C(=O)N[C@@H]1C(=O)O (H-YC[Phe(4-Cl)][Pen]-OH; disulfide 2-4)", "nM", 0.98),
]
